# measurement-protocol: Steady-state plasma PK of ipatasertib and M1 (LC-MS/MS, noncompartmental analysis), Phase Ib study
# Format: in vivo, human
# details: human, plasma, oral, 300 mg, C1D15, ipatasertib 300 mg QD with palbociclib and fulvestrant; median (range)
readout-label: Tmax (h)
Numbers only, in h.

IN: What value of measured Tmax is listed for `CC(C)NC[C@@H](C(=O)N1CCN(c2ncnc3c2[C@H](C)C[C@H]3O)CC1)c1ccc(Cl)cc1` ?
OUT: 1.9

====

# measurement-protocol: Palbociclib PK parameters estimated with established popPK model
# Format: in vivo, human
# details: human, plasma, oral, 125 mg; read-out: AUC0-24,ss (popPK-estimated)
readout-label: AUC over 24 h dosing interval at steady state (ng·h/mL)
One number for each entry, in ng·h/mL.

IN: What AUC over 24 h dosing interval at steady state value was documented for this compound, `CC(=O)c1c(C)c2cnc(Nc3ccc(N4CCNCC4)cn3)nc2n(C2CCCC2)c1=O` ?
OUT: 2600

====

# measurement-protocol: Steady-state plasma PK of ipatasertib and M1 (LC-MS/MS, noncompartmental analysis), Phase Ib study
# Type: in vivo, human
# details: human, plasma, oral; C1D1, ipatasertib 300 mg QD alone; N = 9; geometric mean (%geoCV)
readout-label: AUC0-24,ss (ng·h/mL)
Answers are plain numbers, in ng·h/mL.

IN: Please give the measured AUC0-24,ss for this compound: `CC(C)NC[C@@H](C(=O)N1CCN(c2ncnc3c2[C@H](C)C[C@H]3O)CC1)c1ccc(Cl)cc1`
OUT: 2170

====

# measurement-protocol: Steady-state plasma PK of ipatasertib and M1 (LC-MS/MS, noncompartmental analysis), Phase Ib study
# Format: in vivo, human
# details: human, plasma, oral, 300 mg, C1D1, ipatasertib 300 mg QD alone; median (range)
readout-label: Tmax (h)
Give bare numbers, in h.

IN: Quick one: Tmax for CC(C)NC[C@@H](C(=O)N1CCN(c2ncnc3c2[C@H](C)C[C@H]3O)CC1)c1ccc(Cl)cc1 [Ipatasertib] ?
OUT: 1

All figures here come from paper PMC12511766.
